Hey, just so you know, these numbers are from ChEMBL document CHEMBL1201862.

Please provide measured GI50 for the entries that follow.
- System: SNB-75
- experiment_description: NCI tumour cell line growth inhibition, 48 h
Activity calls are given as the source filed them. No stated cut-off is given here; in the data, active = GI50 up to about 1.1 µM and inactive = higher.

O=C(/C=C/c1ccccc1F)C(c1ccccc1)c1ccccc1: 4.76 µM (inactive)

Record GI50 per entry; entries follow.
1. O=C(/C=C/c1csc(-c2ccccc2)n1)NCc1ccc(C(=O)NCCc2ccccc2)cc1
2. Cc1ccc(S(=O)(=O)NNC2Oc3cc4c(cc3C(c3ccccc3O)C2C)OCO4)cc1 (stereo not drawn)
3. O=C1c2ccccc2-c2c1c(-c1ccc([N+](=O)[O-])cc1)nc1ccc3ccccc3c21
4. O=C(c1ccc(Cl)cc1)N1N=C(c2ccc(Cl)cc2)CC1(O)c1cc(F)c(Cl)cc1Cl (stereo not drawn)
5. Cc1ccc(S(=O)(=O)Oc2cc(N)c3c(n2)CCC3)cc1

1: 2.6 µM (inactive); 2: 10.9 µM (inactive); 3: > 100 µM (inactive); 4: 10 µM (inactive); 5: > 100 µM (inactive)

Your task in this section: give GI50 for each listed record.
1. COCCOC(C)C(=O)C(O)S(=O)(=O)O (stereo not drawn)
2. O=C1N[C@@H]([C@H](CCCCCO)OC(=O)c2ccccc2)CO1
3. COC1(OC)CC2C(=O)N(Cc3ccccc3)C1C=C2S(=O)(=O)c1ccccc1 (stereo not drawn)
4. COc1ccc2c(c1)CC[C@@H]1[C@@H]2CC[C@]2(C)C(=O)/C(=C/c3ccncc3)C[C@@H]12
5. CCSc1nc(-c2ccc(OC)cc2)c(C#N)c(=O)n1C1OCC(OC(C)=O)C(OC(C)=O)C1OC(C)=O (stereo not drawn)
6. O=Cc1cc2c(s1)C(=O)c1sccc1C2=O
7. COC(=O)c1ccc(NCc2c(O)ccc(O)c2Br)cc1Cl

> 100 µM (inactive)
> 100 µM (inactive)
28.8 µM (inactive)
32.1 µM (inactive)
65.6 µM (inactive)
0.19 µM (active)
23.1 µM (inactive)
